test system: pancreatic exocrine function; experiment: 13C-dipeptide breath test in normal rats (Δ13C in exhaled CO2 after oral administration); assay type: in vivo, rat; settings: rats, oral 35 μmol/kg; comparison in words
valueType: Δ^13C(‰) peak value compared with the peak value of Bz-Ala-(^13C-Ala)-ONa

CSCC[C@H](NC(C)=O)C(=O)N[C@@H](C)[13C](=O)[O-].[Na+] [Na salt of Ac-Met-(^13C-Ala), acetyl-L-methionyl-^13C-L-alanine]: higher
CSCC[C@H](NC(=O)OC(C)(C)C)C(=O)N[C@@H](C)[13C](=O)[O-].[Na+] [Na salt of Boc-Met-(^13C-Ala)]: higher
CSCC[C@H](NC(=O)c1ccccc1)C(=O)N[C@@H](C)[13C](=O)[O-].[Na+] [Na salt of Bz-Met-(^13C-Ala), N-benzoyl-L-methionyl-^13C-L-alanine]: higher

---

I'd appreciate it if you could supply Δ^13C(‰) value at 20 min after the administration values for the items below.
tested on: pancreatic exocrine function; test: 13C-dipeptide breath test in chronic pancreatitis rats (oleic acid injected into pancreatic duct); format: in vivo, rat; settings: oral 35 μmol/kg, 20 min, mean±SD

CSCC[C@H](NC(=O)c1ccccc1)C(=O)N[C@@H](C)[13C](=O)[O-].[Na+] [Na salt of Bz-Met-(^13C-Ala), N-benzoyl-L-methionyl-^13C-L-alanine]: 20.25±9.43 ‰
C[C@H](NC(=O)[C@H](CO)NC(=O)c1ccccc1)[13C](=O)[O-].[Na+] [Na salt of Bz-Ser-(^13C-Ala), N-benzoyl-L-seryl-^13C-L-alanine]: 12.80±11.97 ‰
CC(C)[C@H](NC(=O)c1ccccc1)C(=O)N[C@@H](C)[13C](=O)[O-].[Na+] [Na salt of Bz-Val-(^13C-Ala), N-benzoyl-L-valyl-^13C-L-alanine]: 23.95±19.38 ‰

// below: Δ^13C(‰) value at 20 min after the administration requested for another compound
q: Provide only the value of recorded Δ^13C(‰) value at 20 min after the administration for C[C@H](NC(=O)[C@H](Cc1ccc(O)cc1)NC(=O)c1ccccc1)[13C](=O)[O-].[Na+] [Na salt of Bz-Tyr-(^13C-Ala), N-benzoyl-L-tyrosyl-^13C-L-alanine]
a: 29.25±9.98 ‰

---

I'd appreciate it if you could supply Δ^13C(‰) value at 10 min after the administration values for the items below.
test system: pancreatic exocrine function; assay: 13C-dipeptide breath test in normal rats (Δ13C in exhaled CO2 after oral administration); format: in vivo, rat; settings: normal rats, oral 35 μmol/kg, 10 min, mean±SD

CSCC[C@H](NC(=O)c1ccccc1)C(=O)N[C@@H](C)[13C](=O)[O-].[Na+] [Na salt of Bz-Met-(^13C-Ala), N-benzoyl-L-methionyl-^13C-L-alanine]: 48.88±17.45 ‰
C[C@H](NC(=O)[C@H](CO)NC(=O)c1ccccc1)[13C](=O)[O-].[Na+] [Na salt of Bz-Ser-(^13C-Ala), N-benzoyl-L-seryl-^13C-L-alanine]: 35.91±11.85 ‰
C[C@H](NC(=O)[C@H](Cc1ccc(O)cc1)NC(=O)c1ccccc1)[13C](=O)[O-].[Na+] [Na salt of Bz-Tyr-(^13C-Ala), N-benzoyl-L-tyrosyl-^13C-L-alanine]: 33.62±4.76 ‰
C[C@H](NC(=O)[C@@H](NC(=O)c1ccccc1)[C@@H](C)O)[13C](=O)[O-].[Na+] [Na salt of Bz-Thr-(^13C-Ala), N-benzoyl-L-threonyl-^13C-L-alanine]: 47.36±10.99 ‰
CC(C)[C@H](NC(=O)c1ccccc1)C(=O)N[C@@H](C)[13C](=O)[O-].[Na+] [Na salt of Bz-Val-(^13C-Ala), N-benzoyl-L-valyl-^13C-L-alanine]: 35.22±8.02 ‰
C[C@H](NC(=O)[C@H](CCC(N)=O)NC(=O)c1ccccc1)[13C](=O)[O-].[Na+] [Na salt of Bz-Gln-(^13C-Ala), N-benzoyl-L-glutaminyl-^13C-L-alanine]: 54.56±14.10 ‰

// below: Δ^13C(‰) value at 10 min after the administration requested for another compound
q: Provide only the value of recorded Δ^13C(‰) value at 10 min after the administration for C[C@H](NC(=O)[C@H](Cc1ccccc1)NC(=O)c1ccccc1)[13C](=O)[O-].[Na+] [Na salt of Bz-Phe-(^13C-Ala), N-benzoyl-L-phenylalanyl-^13C-L-alanine]
a: 55.62±6.62 ‰
